System: fibroblast cells (3T6) expressing full-length tau (T40) and the 12 kD PHF-core tau fragment
Assay: Cell-based assay for establishing EC50 (inhibition of generation of the 12 kD tau fragment)
From the text: In essence, fibroblast cells (3T6) express full-length tau (“T40”) under control of an inducible promotor, and low constitutive levels of the PHF-core tau fragment (12 kD fragment). This is referred to as the EC50 value.
Structures can show the parent of a compound that is named as a salt.
measurement_label: EC50 (nM)
Give your result in nM as a bare value.

Prompt: Look up and state reported EC50 for O=[N+]([O-])[O-].c1cc2cc3ccc(N4CCOCC4)cc3[o+]c2cc1N1CCOCC1 [Compound AF, 3,6-Bis-morpholino-xanthylium nitrate]
Completion: 22000

Prompt: Look up and state reported EC50 for CN(C)c1ccc2nc3ccc(N(C)C)cc3[s+]c2c1 [MTC, reference compound]
Completion: 590

Prompt: Look up and state reported EC50 for Cl.Cl.c1cc2c(cc1N1CCCC1)Oc1cc(N3CCCC3)ccc1C2 [Compound AJ, dihydrochloride]
Completion: 370

Prompt: Look up and state reported EC50 for `[Cl-].c1c2c3c(c4[o+]c5c6c7c(cc5cc14)CCCN7CCC6)CCCN3CCC2`
Completion: 6.1

Prompt: Look up and state reported EC50 for CCN(CC)c1ccc2c(c1)Oc1cc(N(CC)CC)ccc1C2 [Compound H, dihydrochloride]
Completion: 54

Prompt: Look up and state reported EC50 for `CCN(CC)c1ccc2nc3ccc(N(C)C)cc3nc2c1.Cl`
Completion: 1100

---

Biological target: tau-tau binding: truncated tau (residues 297-390; dGA) on solid phase, full-length tau (T40) in aqueous phase (Homo sapiens, UniProt P10636)
Construct: truncated tau (residues 297-390; dGA); full-length tau (T40) was added in the aqueous phase
Sequence (P10636 614-707): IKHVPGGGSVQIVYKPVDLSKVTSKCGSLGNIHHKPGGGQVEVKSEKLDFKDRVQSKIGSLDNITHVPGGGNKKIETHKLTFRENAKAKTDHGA
Assay: In vitro assay for establishing B50 (tau-tau binding)
Conditions: concentration required to inhibit tau-tau binding by 50%; mean ± SE, number of replications in parentheses; NE = no effect when tested to 500 μM
Assignment: determine reported IC50 for the given compounds.
Give your result in µM as a bare value.

Prompt: Look up and state reported IC50 for CN(C)c1ccc2nc3ccc(=[N+](C)C)cc-3oc2c1 [O, 3,7-bis(dimethylamino)oxazinium chloride]
Completion: 190

Prompt: Look up and state reported IC50 for `CCN(CC)c1cc2oc3cc(N(CC)CC)cc4oc5cc(=[N+](CC)CC)cc6oc(c1)c2c(c34)c65`
Completion: 8.5

---

System: fibroblast cells (3T6)
Settings: therapeutic index, RxI=LD50/EC50
Structures can show the parent of a compound that is named as a salt.
measurement_label: RxI
Write the value as a bare number.

Prompt: Look up and state reported RxI for [Cl-].c1c2c3c(c4[o+]c5c6c7c(cc5cc14)CCCN7CCC6)CCCN3CCC2 [Compound A]
Completion: 3115

Prompt: Look up and state reported RxI for O=[N+]([O-])[O-].c1c2c3c(c4[o+]c5c6c7c(cc5cc14)CCCN7CCC6)CCCN3CCC2 [Compound B]
Completion: 3802

Prompt: Look up and state reported RxI for CCN(CC)c1ccc(-c2c3ccc(=[N+](CC)CC)cc-3oc3cc(N(CC)CC)ccc23)cc1 [Compound AC]
Completion: 34

Prompt: Look up and state reported RxI for CN(C)c1ccc2cc3ccc(N(C)C)cc3[s+]c2c1.[Cl-].[Cl-].[Cl-].[Zn+2] [L]
Completion: 73

Prompt: Look up and state reported RxI for CN(C)c1ccc2nc3ccc(=[N+](C)C)cc-3oc2c1 [O, 3,7-bis(dimethylamino)oxazinium chloride]
Completion: 29

Prompt: Look up and state reported RxI for O=[N+]([O-])[O-].c1cc2cc3ccc(N4CCCC4)cc3[o+]c2cc1N1CCCC1 [Compound AH, 3,6-Bis-pyrrolidino-xanthylium nitrate]
Completion: 465

Prompt: Look up and state reported RxI for CCN(CC)c1ccc2cc3ccc(N(CC)CC)cc3[s+]c2c1.[I-] [K]
Completion: 91

Prompt: Look up and state reported RxI for CCN(CC)c1ccc2c(c1)Oc1cc(N(CC)CC)ccc1C2 [Compound H, dihydrochloride]
Completion: 2093

Prompt: Look up and state reported RxI for O=[N+]([O-])[O-].c1cc2cc3ccc(N4CCOCC4)cc3[o+]c2cc1N1CCOCC1 [Compound AF, 3,6-Bis-morpholino-xanthylium nitrate]
Completion: 7

Prompt: Look up and state reported RxI for FC(F)(F)C1=c2cc3c4c(c2Oc2c1cc1c5c2CCCN5CCC1)CCC[N+]=4CCC3 [C]
Completion: 13

Prompt: Look up and state reported RxI for CCN(CC)c1ccc2nc3ccc(N(C)C)cc3nc2c1.Cl [AM]
Completion: 85

Prompt: Look up and state reported RxI for Cl.Cl.c1cc2c(cc1N1CCOCC1)Oc1cc(N3CCOCC3)ccc1C2 [Compound AI]
Completion: 17

Prompt: Look up and state reported RxI for Cl.Cl.c1cc2c(cc1N1CCCCC1)Oc1cc(N3CCCCC3)ccc1C2 [Compound AK]
Completion: 69

Prompt: Look up and state reported RxI for CCN(CC)c1cc2oc3cc(N(CC)CC)cc4oc5cc(=[N+](CC)CC)cc6oc(c1)c2c(c34)c65 [AL]
Completion: 62

Prompt: Look up and state reported RxI for CCN(CC)c1ccc2c(-c3ccc([N+](=O)[O-])cc3)c3ccc(N(CC)CC)cc3[o+]c2c1.O=[N+]([O-])[O-] [Compound AD]
Completion: 54

Prompt: Look up and state reported RxI for O=[N+]([O-])[O-].c1cc2cc3ccc(N4CCCCC4)cc3[o+]c2cc1N1CCCCC1 [Compound AG, 3,6-Bis-piperidino-xanthylium nitrate]
Completion: 12

Prompt: Look up and state reported RxI for CCc1c2ccc(N(CC)CC)cc2[o+]c2cc(N(CC)CC)ccc12.[Cl-] [Compound J]
Completion: 1545

Prompt: Look up and state reported RxI for Cc1cc(N(C)C)cc2[s+]c3cc(N(C)C)cc(C)c3nc12 [DMMTC, reference compound]
Completion: 67

Prompt: Look up and state reported RxI for CC[N+](CC)=c1ccc2nc3ccc(N(C)C)cc3oc-2c1 [AN]
Completion: 309

Prompt: Look up and state reported RxI for CC1(C)CCN2CCC(C)(C)c3c4c(cc1c32)C=c1cc2c3c(c1O4)C(C)(C)CC[N+]=3CCC2(C)C [Compound AE]
Completion: 412

Prompt: Look up and state reported RxI for Cl.Cl.c1cc2c(cc1N1CCCC1)Oc1cc(N3CCCC3)ccc1C2 [Compound AJ]
Completion: 334

---

System: fibroblast cells (3T6)
Details: cell numbers after 24 hrs exposure, lactate dehydrogenase assay kit; mean ± SE, number of replications in parentheses
Where a name gives a salt, the structure may show the parent alone.
measurement_label: LD50

Prompt: Report the value of LD50 obtained on fibroblast cells (3T6) for `CC[N+](CC)=c1ccc2nc3ccc(N(C)C)cc3oc-2c1` .
Completion: 167 ± 29 (6) μM

Prompt: Report the value of LD50 obtained on fibroblast cells (3T6) for `O=[N+]([O-])[O-].c1c2c3c(c4[o+]c5c6c7c(cc5cc14)CCCN7CCC6)CCCN3CCC2` .
Completion: 30.8 ± 4.6 (4) μM

Prompt: Report the value of LD50 obtained on fibroblast cells (3T6) for `Cl.Cl.c1cc2c(cc1N1CCCC1)Oc1cc(N3CCCC3)ccc1C2` .
Completion: 125 ± 57 (10) μM

Prompt: Report the value of LD50 obtained on fibroblast cells (3T6) for `CCN(CC)c1ccc2cc3ccc(N(CC)CC)cc3[s+]c2c1.[I-]` .
Completion: 21.2 ± 12 (3) μM

Prompt: Report the value of LD50 obtained on fibroblast cells (3T6) for `Cl.Cl.c1cc2c(cc1N1CCOCC1)Oc1cc(N3CCOCC3)ccc1C2` .
Completion: 280 ± 121 (10) μM

Prompt: Report the value of LD50 obtained on fibroblast cells (3T6) for CCN(CC)c1ccc2c(c1)Oc1cc(N(CC)CC)ccc1C2 [Compound H, dihydrochloride] .
Completion: 113 ± 18 (11) μM

Prompt: Report the value of LD50 obtained on fibroblast cells (3T6) for `CCN(CC)c1ccc2nc3ccc(N(C)C)cc3nc2c1.Cl` .
Completion: 93 ± 19 (6) μM

Prompt: Report the value of LD50 obtained on fibroblast cells (3T6) for CN(C)c1ccc2nc3ccc(=[N+](C)C)cc-3oc2c1 [O, 3,7-bis(dimethylamino)oxazinium chloride] .
Completion: 115 ± 17 (9) μM

Prompt: Report the value of LD50 obtained on fibroblast cells (3T6) for O=[N+]([O-])[O-].c1cc2cc3ccc(N4CCOCC4)cc3[o+]c2cc1N1CCOCC1 [Compound AF, 3,6-Bis-morpholino-xanthylium nitrate] .
Completion: 144 ± 67 (10) μM

---

System: fibroblast cells (3T6)
Details: cell numbers after 24 hrs exposure, lactate dehydrogenase assay kit; mean ± SE, number of replications in parentheses
Assignment: determine reported LD50 for the given compounds.

Prompt: Look up and state reported LD50 for `CCN(CC)c1ccc2c(-c3ccc([N+](=O)[O-])cc3)c3ccc(N(CC)CC)cc3[o+]c2c1.O=[N+]([O-])[O-]`
Completion: 19 ± 9 (5) μM

Prompt: Look up and state reported LD50 for O=[N+]([O-])[O-].c1cc2cc3ccc(N4CCCCC4)cc3[o+]c2cc1N1CCCCC1 [Compound AG, 3,6-Bis-piperidino-xanthylium nitrate]
Completion: 13.8 ± 6.2 (8) μM

Prompt: Look up and state reported LD50 for `CCN(CC)c1ccc(-c2c3ccc(=[N+](CC)CC)cc-3oc3cc(N(CC)CC)ccc23)cc1`
Completion: 14.5 ± 8.4 (8) μM

Numbers sourced from patent US8658665B2.
